- Experimental Protocol: HUVEC growth inhibition – cell-based, human, primary screen (AID 575);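 note: 100% = median of untreated cell wells with 0.1% DMSO on each plate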
- Settings: HUVEC proliferation, CellTiter-Glo luminescence, 72 h; at 10 µM; hits give low values
Parameter Measured: viability (%)
Supply the numeric figure in %, leaving out any unit text.

{"Molecule": "Cn1c(=O)[nH]c(=O)c2c1nc(N1CCOCC1)n2CC(O)COc1ccc2ccccc2c1 (stereo not given)", "Number": 88.7}
{"Molecule": "Cc1ccnc(NS(=O)(=O)c2ccc(NC(=O)Cc3cccs3)cc2)n1", "Number": 87.6}
{"Molecule": "COc1cccc(N2CCN(Cc3nc(N)nc(Nc4ccccc4)n3)CC2)c1", "Number": 89.1}
{"Molecule": "COc1ccc(-n2ncc3c(NCc4cccs4)ncnc32)cc1", "Number": 90.5}

Here is another molecule to look at.
Query block: So what's the measured viability for this one? COc1ccc(-n2cnnc2SCCC#N)cc1
Result block: 88.3
